measurement protocol: Largest Soluble Hydrocarbon (LSH) test
Assay type: physicochemical
condition summary: 50° C.; hydrofluoroolefin:hydrocarbon about 1:1 to 1:2 by weight; >23 = miscible with C23H48 without haze
value kind: LSH (n in CnH2n+2)

Would you mind telling me what LSH (n in CnH2n+2) value was observed for FC(=CBr)C(F)(F)C(F)(F)F ?
>23

And for FC(=CBr)C(F)(F)F ?
>23

Items follow; give LSH (n in CnH2n+2) for each.
1. FC(=CCl)C(F)(F)OC(F)(F)F
2. FC(=CCl)C(F)(F)C(F)(F)C(F)(F)F

[">23", 22]

----------
measurement protocol: Largest Soluble Hydrocarbon (LSH) test
Assay type: physicochemical
condition summary: 50° C.; hydrofluoroolefin:hydrocarbon about 1:1 to 1:2 by weight; >23 = miscible with C23H48 without haze
Record form. Attribute: LSH (n in CnH2n+2). Fill in for each entry.

Sample answers from the record:
Need LSH (n in CnH2n+2) of FC(=CBr)C(F)(F)C(F)(F)C(F)F , thanks.
>23

// same read-out, input: FC(=CCl)C(F)OC(F)(F)F (stereo not drawn)
>23

Follow-up entry: FC(=CCl)N1C(F)(F)C(F)(F)OC(F)(F)C1(F)F
18

Then this compound: FC(=CCl)C(F)C(F)(F)F (stereo not drawn)
>23

For every listed record, write down its LSH (n in CnH2n+2).
1. FC(=CBr)C(F)F
2. FC(=CCl)C(F)(F)N(C(F)(F)F)C(F)(F)C(F)(F)F

>23
17

----------
measurement protocol: Largest Soluble Hydrocarbon (LSH) test
Format: physicochemical
condition summary: 25° C.; hydrofluoroolefin:hydrocarbon about 1:1 to 1:2 by weight; longest hydrocarbon compatible without haze
value kind: LSH (n in CnH2n+2)
Numbers only.

Provide reported LSH (n in CnH2n+2) for each item, in the same order as listed.
1. FC(=CCl)C(F)(F)OC(F)(F)F [Example 7]
2. FC(=CCl)C(F)OC(F)(F)F (centres unmarked) [Example 11]
3. FC(=CBr)C(F)(F)C(F)(F)C(F)F [Example 4]
4. FC(=CBr)C(F)F [Example 3, 1-bromo-2,3,3-trifluoroprop-1-ene]
5. FC(=CCl)C(F)(F)C(F)(F)F [Example 6, 1-chloro-2,3,3,4,4,4-but-1-ene]
6. FC(=CCl)N1C(F)(F)C(F)(F)OC(F)(F)C1(F)F [Example 8]
7. FC(=CCl)C(F)C(F)(F)F (centres unmarked) [Example 10, 1-chloro-2,3,4,4,4-pentafluoro-but-1-ene]

19
18
19
19
19
14
19

----------
Give measured LSH (n in CnH2n+2) for each item. Keep answers brief.
measurement protocol: Largest Soluble Hydrocarbon (LSH) test
Type: physicochemical
condition summary: 25° C.; hydrofluoroolefin:hydrocarbon about 1:1 to 1:2 by weight; longest hydrocarbon compatible without haze
Numbers only.

Item FC(=CCl)C(F)(F)N(C(F)(F)F)C(F)(F)C(F)(F)F [Example 9] has what recorded LSH (n in CnH2n+2)?
13

Another molecule: FC(=CBr)C(F)(F)F [Example 1, 1-bromo-2,3,3,3-tetrafluoroprop-1-ene]
19

FC(=CBr)C(F)(F)C(F)(F)F [Example 2, 1-bromo-2,3,3,4,4,4-hexafluorobut-1-ene] , same question.
19

Others:
State the recorded LSH (n in CnH2n+2) for this entry: FC(=CCl)C(F)(F)C(F)(F)C(F)(F)F [Example 5, 1-chloro-2,3,3,4,4,5,5,5-pent-1-ene]
17
